# procedure-details: Binding affinity to SARS CoV Main protease incubated for 20 mins by reverse-phase HPLC analysis
# Parameters: species or system Severe acute respiratory syndrome-related coronavirus
pKi for assorted molecules
Keep in mind that pKi stands for -log10 of concentration in molar terms.

Request: GET /values?readout=pKi&item= CC(=O)/C=C/[C@H](C[C@@H]1CCNC1=O)NC(=O)[C@H](CC(C)C)NC(=O)[C@H](CNC(=O)C(C)(C)C)NC(=O)OCc1ccccc1
Result: 7.42

Request: Do the same for CC(C)C[C@H](NC(=O)[C@@H](NC(=O)OCc1ccccc1)[C@@H](C)OC(C)(C)C)C(=O)N[C@H](/C=C/C(=O)C1CC1)C[C@@H]1CCNC1=O please
Result: 7.00

Request: Do the same for CCOC(=O)/C=C/[C@H](C[C@@H]1CCNC1=O)NC(=O)[C@H](CC(C)C)NC(=O)[C@@H](NC(=O)OCc1ccccc1)[C@@H](C)OC(C)(C)C please
Result: 7.24

Request: Do the same for CCOC(=O)/C=C/[C@H](Cc1ccccc1)NC(=O)[C@H](Cc1ccccc1)NC(=O)/C=C\c1ccc(N(C)C)cc1 please
Result: 6.18

Request: Do the same for CCOC(=O)/C=C/[C@H](C[C@@H]1CCNC1=O)NC(=O)[C@H](CC(C)C)NC(=O)[C@@H](NC(=O)OCc1ccccc1)C(C)C please
Result: 6.28
